Field: Alpha/Delta Ratio. Provide a value for each of the compounds that follow.
# TARGET: PI3Kα (Homo sapiens, UniProt P42336)
# Construct: His tag (pFastbac HTb vector) (N); FLAG; made in house; host or cells: Sf21 insect cells (baculovirus)
# Sequence (P42336 whole entry, one chain of several): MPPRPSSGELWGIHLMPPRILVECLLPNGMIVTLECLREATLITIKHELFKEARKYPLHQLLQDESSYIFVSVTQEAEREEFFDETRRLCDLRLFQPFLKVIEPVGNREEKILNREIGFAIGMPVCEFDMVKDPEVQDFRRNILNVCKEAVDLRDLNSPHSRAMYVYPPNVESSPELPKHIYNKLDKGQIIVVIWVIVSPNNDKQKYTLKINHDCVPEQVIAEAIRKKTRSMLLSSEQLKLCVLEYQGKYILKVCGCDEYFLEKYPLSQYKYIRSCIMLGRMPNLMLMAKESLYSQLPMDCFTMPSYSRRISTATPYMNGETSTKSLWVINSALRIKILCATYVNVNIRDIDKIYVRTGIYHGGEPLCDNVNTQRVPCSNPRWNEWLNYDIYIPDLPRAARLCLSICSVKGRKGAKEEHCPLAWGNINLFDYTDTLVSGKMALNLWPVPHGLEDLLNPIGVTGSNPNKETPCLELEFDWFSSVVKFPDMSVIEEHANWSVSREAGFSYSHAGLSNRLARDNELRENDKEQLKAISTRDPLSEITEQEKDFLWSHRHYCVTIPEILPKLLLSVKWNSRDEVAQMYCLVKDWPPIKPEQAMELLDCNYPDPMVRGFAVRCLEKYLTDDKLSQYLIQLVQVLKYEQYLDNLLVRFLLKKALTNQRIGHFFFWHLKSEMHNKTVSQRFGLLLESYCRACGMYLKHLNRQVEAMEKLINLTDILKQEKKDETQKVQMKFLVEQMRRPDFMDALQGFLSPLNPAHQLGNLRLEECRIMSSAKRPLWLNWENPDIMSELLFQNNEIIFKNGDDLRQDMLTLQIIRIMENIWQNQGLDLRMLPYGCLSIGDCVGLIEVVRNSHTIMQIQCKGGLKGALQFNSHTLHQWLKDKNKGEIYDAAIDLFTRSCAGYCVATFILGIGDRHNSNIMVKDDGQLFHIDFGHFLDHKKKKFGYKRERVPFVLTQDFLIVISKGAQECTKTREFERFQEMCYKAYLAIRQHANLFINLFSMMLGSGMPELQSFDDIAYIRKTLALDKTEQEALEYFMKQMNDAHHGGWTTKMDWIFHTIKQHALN
# ASSAY_EXPLANATION: Biochemical assay of PI3K potency and selectivity using 20 μM ATP, Alpha
# ASSAY_CONTEXT: 20 μM ATP; ratio of IC50 values; > = hypothetical ratio with 100 μM substituted for the missing IC50

Report Alpha/Delta Ratio from PI3Kα (Homo sapiens, UniProt P42336) testing of "Nc1ncnc2c1ncn2Cc1nc2ccc(Cl)cc2c(=O)n1-c1ccccc1Cl"
>2

Report Alpha/Delta Ratio from PI3Kα (Homo sapiens, UniProt P42336) testing of "COc1cc2nc(CSc3ncnc4[nH]cnc34)n(-c3ccccc3Cl)c(=O)c2cc1OC"
>2.5

Report Alpha/Delta Ratio from PI3Kα (Homo sapiens, UniProt P42336) testing of "O=c1c2ccccc2nc(CSc2ncnc3[nH]cnc23)n1-c1ccncc1"
>32

Others:
Report Alpha/Delta Ratio from PI3Kα (Homo sapiens, UniProt P42336) testing of "Cc1cccc2nc(Cn3cnc4c(N)ncnc43)n(-c3ccccc3Cl)c(=O)c12"
>619

* * *

# Tested on: T cell proliferation
# ASSAY_EXPLANATION: Stimulated T cell proliferation (Mouse TCE Stim, Table 4)
# Assay type: cell-based
# ASSAY_CONTEXT: T-cell, read-out: Mouse TCE Stim (EC50)
MEASURE_NAME: EC50 (µM)
One number for each entry, in µM.

Tell us which EC50 value is on record for "Cc1cccc2nc(CSc3ncnc4[nH]cnc34)n(-c3ccccc3Cl)c(=O)c12"
3.5

* * *

# TARGET: PI3Kδ (Homo sapiens, UniProt O00329, S253N)
# Sequence (O00329 whole entry S253N): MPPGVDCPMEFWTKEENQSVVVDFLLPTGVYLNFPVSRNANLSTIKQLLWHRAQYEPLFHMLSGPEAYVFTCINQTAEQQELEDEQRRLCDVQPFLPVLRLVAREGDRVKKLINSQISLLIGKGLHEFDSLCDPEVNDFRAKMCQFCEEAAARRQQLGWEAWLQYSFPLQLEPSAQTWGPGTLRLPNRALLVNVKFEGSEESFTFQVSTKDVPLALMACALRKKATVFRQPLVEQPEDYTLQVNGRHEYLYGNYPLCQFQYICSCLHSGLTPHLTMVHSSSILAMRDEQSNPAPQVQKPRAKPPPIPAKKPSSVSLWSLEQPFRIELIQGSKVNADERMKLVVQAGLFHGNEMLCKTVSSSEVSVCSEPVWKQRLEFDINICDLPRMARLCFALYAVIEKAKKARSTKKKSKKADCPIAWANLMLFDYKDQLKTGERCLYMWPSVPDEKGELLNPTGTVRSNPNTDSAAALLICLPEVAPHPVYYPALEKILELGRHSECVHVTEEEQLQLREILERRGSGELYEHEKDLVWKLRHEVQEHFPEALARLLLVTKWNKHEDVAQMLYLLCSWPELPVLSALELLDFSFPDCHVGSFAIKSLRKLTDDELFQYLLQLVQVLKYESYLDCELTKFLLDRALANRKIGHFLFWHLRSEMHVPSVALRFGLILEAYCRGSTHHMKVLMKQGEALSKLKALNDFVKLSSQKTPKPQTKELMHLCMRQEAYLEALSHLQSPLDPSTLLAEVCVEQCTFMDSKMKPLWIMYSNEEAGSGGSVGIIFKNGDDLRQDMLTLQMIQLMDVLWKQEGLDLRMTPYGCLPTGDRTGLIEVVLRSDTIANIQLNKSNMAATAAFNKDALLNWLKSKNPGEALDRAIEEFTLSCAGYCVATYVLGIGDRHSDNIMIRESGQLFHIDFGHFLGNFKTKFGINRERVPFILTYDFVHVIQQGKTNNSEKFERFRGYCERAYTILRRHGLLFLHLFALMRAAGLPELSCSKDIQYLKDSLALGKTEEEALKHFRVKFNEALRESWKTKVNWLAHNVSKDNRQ
# Sequence (P27986 whole entry partner): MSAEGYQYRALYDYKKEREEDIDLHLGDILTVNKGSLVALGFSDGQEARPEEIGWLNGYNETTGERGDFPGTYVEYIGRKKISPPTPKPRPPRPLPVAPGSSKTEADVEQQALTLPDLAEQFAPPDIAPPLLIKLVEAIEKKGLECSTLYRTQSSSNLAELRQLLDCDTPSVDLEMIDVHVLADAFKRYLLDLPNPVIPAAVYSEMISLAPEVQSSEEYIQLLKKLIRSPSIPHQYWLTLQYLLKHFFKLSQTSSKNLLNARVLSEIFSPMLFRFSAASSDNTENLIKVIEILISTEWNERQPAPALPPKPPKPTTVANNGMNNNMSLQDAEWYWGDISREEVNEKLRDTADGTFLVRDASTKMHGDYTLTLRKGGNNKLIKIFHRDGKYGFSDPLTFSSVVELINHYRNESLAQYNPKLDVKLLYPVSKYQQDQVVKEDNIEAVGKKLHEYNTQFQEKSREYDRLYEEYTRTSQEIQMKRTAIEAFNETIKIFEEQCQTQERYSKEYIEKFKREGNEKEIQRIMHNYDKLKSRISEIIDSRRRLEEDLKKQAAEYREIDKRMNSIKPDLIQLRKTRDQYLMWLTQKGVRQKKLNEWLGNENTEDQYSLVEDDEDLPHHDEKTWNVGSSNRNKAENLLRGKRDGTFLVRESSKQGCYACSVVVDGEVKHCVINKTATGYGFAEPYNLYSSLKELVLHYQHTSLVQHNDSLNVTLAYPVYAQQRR
# ASSAY_EXPLANATION: Biochemical assay of PI3K potency and selectivity using 20 μM ATP, Delta
# Set-up: His tag (pFastbac HTb vector) (N); FLAG; made in house; host or cells: Sf21 insect cells (baculovirus)
# ASSAY_CONTEXT: 20 μM ATP; read-out: Delta IC50
# From the text: Recombinant PI3K heterodimeric complexes consisting of a p110 catalytic subunit and a p85 regulatory subunit were overexpressed using the BAC-TO-BAC® HT baculovirus expression system (GIBCO/BRL), and then purified for use in biochemical assays. The four Class I PI 3-kinases were cloned into baculovirus vectors as follows: […]
Simple rule here: IC50 less than 900 nM is true (1), otherwise false (0).

Recorded results for 2 compounds are shown here.
Input "Cc1cccc2nc(CSc3ncnc4[nH]cnc34)n(-c3ccccc3Cl)c(=O)c12" ; condition: IC50 strictly below 900 nM. Does it hold?
true (1)

Input "O=c1c2ccccc2nc(CSc2ncnc3[nH]cnc23)n1-c1cccc(Cl)c1" ; condition: IC50 strictly below 900 nM. Does it hold?
false (0)

Others:
Input "COc1cccc(-n2c(CSc3ncnc4[nH]cnc34)nc3ccccc3c2=O)c1" ; condition: IC50 strictly below 900 nM. Does it hold?
false (0)

Input O=c1c2ccccc2nc(CSc2ncnc3[nH]ncc23)n1-c1ccccc1Cl [Compound D-999, reference compound] ; condition: IC50 strictly below 900 nM. Does it hold?
false (0)

Input "O=c1c2ccccc2nc(CSc2ncnc3[nH]cnc23)n1-c1ccc(Cl)cc1" ; condition: IC50 strictly below 900 nM. Does it hold?
false (0)
